- systemName: TTR in human blood plasma (Homo sapiens, UniProt P02766)
- Construct: from tissue; host or cells: human blood plasma
- assayOverview: blood plasma TTR binding selectivity, antibody capture method
- measurementConditions: inhibitor 10.8 μM
- Procedure: Inhibitor binding selectivity to TTR in human blood plasma was assessed using a previously established antibody capture method (Purkey, H. E.; et al. Proc. Natl. Acad. Sci. USA 2001, 98, 5566-5571). […] After washing the resin (5×10 min washes), the antibody-TTR complex is dissociated at high pH and analyzed by RP-HPLC. The relative stoichiometry between TTR and inhibitor is then calculated from their HPLC peak areas using standard curves. […]
quantityName: binding selectivity to TTR in human blood plasma (in words)

1. O=C(O)c1cccc(Nc2ccc(C(=O)O)c3oc4c(C(=O)O)cccc4c23)c1; modest
2. O=C(O)c1cccc(-c2ccc(C(=O)O)c3oc4c(C(=O)O)cccc4c23)c1; modest
